# Test system: hepatic steatosis induced by MCD diet
# Experiment: Histological examination (H&E stain) of liver of MCD diet mice
# Assay type: in vivo, Male C57BL/6 mice
# Study Conditions: average of Scores of the group; 100 mg/kg oral, PG/TPSG (1:1)
Measure Name: Avg
Write no unit; give the number alone.

`Cl.[2H]C([2H])([2H])Oc1cc(/C=C/c2ccc(OC(=O)OCCNC(=O)CN)cc2)cc(OC([2H])([2H])[2H])c1` has a reported Avg of 7.00

---

# Experiment: In vitro stability in pH 1.2 solution (USP Gastric fluid without enzymes)
# Study Conditions: Time 4 h, 37° C.
Measure Name: compound remaining in pH = 1.2 solution (%)
The figure you give is taken to be in %; do not add the unit.

get_value(item= `CCOc1cc(/C=C/c2ccc(OC(=O)OCCNC(=O)CN)cc2)cc(OCC)c1.Cl` , readout=compound remaining in pH = 1.2 solution (%)) returns 99.2

Query `COc1cc(/C=C/c2ccc(OC(=O)OCCNC(=O)CN)cc2)cc(OC)c1.Cl` yields compound remaining in pH = 1.2 solution (%) of 103.5

Looking up `Cl.[2H]C([2H])([2H])Oc1cc(/C=C/c2ccc(OC(=O)OCCNC(=O)CN)cc2)cc(OC([2H])([2H])[2H])c1` , I see its compound remaining in pH = 1.2 solution (%) listed as 104.6

compound remaining in pH = 1.2 solution (%) reading for `COc1cc(/C=C/c2ccc(OC(=O)OCCNC(=O)CN)cc2)cc(OC)c1.O=C(O)c1cccnc1` : 106.9

Memo: COc1cc(/C=C/c2ccc(OC(=O)OCCNC(=O)C(N)Cc3ncc[nH]3)cc2)cc(OC)c1.Cl.Cl (stereo not drawn) , reported compound remaining in pH = 1.2 solution (%): 85.6

Summary for this compound, COc1cc(/C=C/c2ccc(OC(=O)OCCNC(=O)C(N)C(C)C)cc2)cc(OC)c1.O=C(O)c1cccnc1 (stereo not drawn) : compound remaining in pH = 1.2 solution (%) is 122.4

---

Recorded compound remaining in pH = 1.2 solution (%), one value per entry.
# Experiment: In vitro stability in pH 1.2 solution (USP Gastric fluid without enzymes)
# Study Conditions: Time 2 h, 37° C.
Answer in %, number only, no unit symbol.

[
  {
    "Molecule": "COc1cc(/C=C/c2ccc(OC(=O)OCCNC(=O)CN)cc2)cc(OC)c1.O=C(O)c1cccnc1",
    "Obs Value": 103.0
  },
  {
    "Molecule": "COc1cc(/C=C/c2ccc(OC(=O)OCCNC(=O)CN)cc2)cc(OC)c1.Cl",
    "Obs Value": 101.7
  },
  {
    "Molecule": "COc1cc(/C=C/c2ccc(OC(=O)OCCNC(=O)C(N)C(C)C)cc2)cc(OC)c1.O=C(O)c1cccnc1 (stereo not drawn)",
    "Obs Value": 128.5
  }
]

Lab book: compound remaining in pH = 1.2 solution (%) of `CCOc1cc(/C=C/c2ccc(OC(=O)OCCNC(=O)CN)cc2)cc(OCC)c1.Cl` noted as 97.9

GET /value?item= COc1cc(/C=C/c2ccc(OC(=O)OCCNC(=O)C(N)Cc3ncc[nH]3)cc2)cc(OC)c1.Cl.Cl (stereo not drawn) &field=compound remaining in pH = 1.2 solution (%) returns 102.6

Entry under test: `Cl.[2H]C([2H])([2H])Oc1cc(/C=C/c2ccc(OC(=O)OCCNC(=O)CN)cc2)cc(OC([2H])([2H])[2H])c1` . Its compound remaining in pH = 1.2 solution (%) was 101.5
